From: the supplement of paper PMC10646978

- System: RAW-Dual (murine macrophage reporter line)
- Method: IRF reporter (Lucia luciferase) activity fold change vs agonist alone; higher = enhanced IRF activity
- Conditions used: modulator concentration 10 µM; agonist: MPLA […]
Decision: IRF reporter >= 1 yields True, all other cases yield False.

COc1ccc(CC(=O)N2CCC(N3CCC(OC)CC3)CC2)cc1OC
True
Cc1ccccc1C(=O)N(Cc1cccnc1)c1nc2c(F)cccc2s1
False
CNC(=NC#N)NCCSCc1nc[nH]c1C
True
C=C1C(=O)OC2C1CCC(C)=CCCC1(C)OC21 (stereo unspecified)
False
CC(C)NCC(O)COCCOc1ccc(C(C)(C)C)cc1.Cl (stereo unspecified)
True
O=C(Nc1ccc(F)c([N+](=O)[O-])c1)c1cccs1
True

Entry C1CCC(N2NC2C2NN2C2CCCCC2)CC1 (stereo unspecified) : is its IRF reporter no less than 1?
True

Entry "O=S(=O)(Cc1ccccc1)c1nc2ccccc2n1Cc1ccc(Cl)cc1" : is its IRF reporter no less than 1?
True

Entry "Clc1ccc(Nc2nc(Nc3ccc(Cl)cc3)nc(N3CCOCC3)n2)cc1" : is its IRF reporter no less than 1?
True

Entry "CC(=NOCON=C(C)c1ccc(Cl)c(Cl)c1)c1ccc(Cl)c(Cl)c1" : is its IRF reporter no less than 1?
True

Entry COc1ccc(Nc2nc(N3CCCC(C)C3)nc3[nH]ncc23)cc1 (stereo unspecified) : is its IRF reporter no less than 1?
True

---

- Tested on: RAW-Dual (murine macrophage reporter line)
- Method: NF-kB reporter (SEAP) activity fold change vs agonist alone; higher = enhanced NF-kB activity
- Conditions used: modulator concentration 10 µM; agonist: CpG ODN 1826 0.5 ug/mL
Decision: NF-kB reporter >= 0.9 yields T, all other cases yield F.

O=C(O)CCCCCN1C(=O)c2ccccc2C1=O
T
O=C1C(Cl)=C(N2CCCCC2)C(=O)N1c1cc(Cl)c(Cl)cc1Cl
F

Entry "Cc1cccc(C)c1OCC(=O)N[C@@H](Cc1ccccc1)[C@@H](O)C[C@H](Cc1ccccc1)NC(=O)[C@H](C(C)C)N1CCCNC1=O" : is its NF-kB reporter no less than 0.9?
F

Entry "CCn1c(C=Nn2cnnc2)nc2ccccc21" : is its NF-kB reporter no less than 0.9?
T

Entry CS(=O)(=O)C1CC2CCC(C1)N2C(=O)c1cccc(Oc2ccc(F)cc2)c1 (centres undefined) : is its NF-kB reporter no less than 0.9?
T

Entry "CC(=O)c1cc2c(o1)C(=O)c1ccccc1C2=O" : is its NF-kB reporter no less than 0.9?
T

Entry "CCn1nnc2c(NCCc3c[nH]c4ccccc34)ncnc21" : is its NF-kB reporter no less than 0.9?
T

---

Measured NF-kB reporter values are reported for all entries that follow.
- Tested on: RAW-Dual (murine macrophage reporter line)
- Method: NF-kB reporter (SEAP) activity fold change vs agonist alone; higher = enhanced NF-kB activity
- Conditions used: modulator concentration 10 µM; agonist: CpG ODN 1826 0.5 ug/mL
Lab note: write the figure by itself, no unit.

Previously resolved entries follow.
Cn1c(=O)cc(N2CCC[C@@H](N)C2)n(Cc2ccccc2C#N)c1=O
1.19
CCOc1cc([C@@H](CS(C)(=O)=O)N2C(=O)c3cccc(NC(C)=O)c3C2=O)ccc1OC
2.72
COCCCNC(=O)C1CCCN(c2ccc(Sc3ccc(Br)cc3)nn2)C1 (stereo not given)
0.99
COc1ccc(CNC23CC4CC(CC(C4)C2)C3)cc1OC
0.937
Cc1ccc(-c2cc(C(F)(F)F)nn2-c2ccc(S(N)(=O)=O)cc2)cc1
0.337
Br.CC(=O)c1cccc(Nc2nc(-c3c(C)nc4cc(C)ccn34)cs2)c1
0.774

Give NF-kB reporter for the following compound: "O=Cc1cn(CCOc2ccc(Cl)cc2)c2ccccc12"
1.45

---

Measured NF-kB reporter values are reported for all entries that follow.
- Tested on: RAW-Dual (murine macrophage reporter line)
- Method: NF-kB reporter (SEAP) activity fold change vs agonist alone; higher = enhanced NF-kB activity
- Conditions used: modulator concentration 10 µM; agonist: CpG ODN 1826 0.5 ug/mL
Lab note: write the figure by itself, no unit.

Previously resolved entries follow.
O=C(CCn1c(=O)oc2ccccc21)Nc1ccncc1
1.17
O=C(NCc1ccco1)C(=Cc1ccc(-c2ccccc2Cl)o1)NC(=O)c1ccccc1
0.57
CN(C)CCOC(=O)COc1ccc(Cl)cc1.Cl
1.11

Give NF-kB reporter for the following molecule: "CN(C)CCCN1c2ccccc2Sc2ccc(Cl)cc21"
0.227

Give NF-kB reporter for the following molecule: Cc1ccccc1OCC(O)CO (stereo not drawn)
0.813

Give NF-kB reporter for the following molecule: "Cn1cc(CC(=O)NC2CCN(c3cc(C(F)(F)F)ncn3)CC2)c2ccccc21"
1.45

Give NF-kB reporter for the following molecule: "O=C(O)CCc1nc(-c2ccccc2)c(-c2ccccc2)o1"
1.05

Give NF-kB reporter for the following molecule: "COc1ccc(CC(=O)Nc2ccc(C)c(N3CCCCC3=O)c2)cc1OC"
1.42

Give NF-kB reporter for the following molecule: "Cl.Nc1ccn([C@@H]2O[C@H](CO)[C@@H](O)C2(F)F)c(=O)n1"
1.3

---

- System: RAW-Dual (murine macrophage reporter line)
- Method: NF-kB reporter (SEAP) activity fold change vs agonist alone; higher = enhanced NF-kB activity
- Conditions used: modulator concentration 10 µM; agonist: CpG ODN 1826 0.5 ug/mL
Measurement name: NF-kB reporter
Lab note: write the figure by itself, no unit.

CN(C)CC#CCNC(=O)Nc1ccc(C(F)(F)F)cc1
0.935

Answer briefly: NF-kB reporter recorded on RAW-Dual (murine macrophage reporter line) for "Cc1sc(NC(=O)c2cc(Cl)ccc2[N+](=O)[O-])nc1-c1ccccc1"
1

Answer briefly: NF-kB reporter recorded on RAW-Dual (murine macrophage reporter line) for Cl.Cn1c(=N)n(CC(O)c2ccco2)c2ccccc21 (stereo unspecified)
1.05

Answer briefly: NF-kB reporter recorded on RAW-Dual (murine macrophage reporter line) for "Cc1occc1C(=O)NN=Cc1cc([N+](=O)[O-])ccc1O"
1.12

Answer briefly: NF-kB reporter recorded on RAW-Dual (murine macrophage reporter line) for "Cc1c(C(=O)ON=C(N)c2ccncc2)cccc1[N+](=O)[O-]"
1.01

Answer briefly: NF-kB reporter recorded on RAW-Dual (murine macrophage reporter line) for "O=S(=O)(NCc1ccc(-c2cccnc2)nc1)c1ccc(OC(F)(F)F)cc1"
0.947

---

- System: RAW-Dual (murine macrophage reporter line)
- Method: NF-kB reporter (SEAP) activity fold change vs agonist alone; higher = enhanced NF-kB activity
- Conditions used: modulator concentration 10 µM; agonist: CpG ODN 1826 0.5 ug/mL
Decision: NF-kB reporter >= 1 yields Yes, all other cases yield No.

Reference set, count: 5
Cc1cc(CCC(=O)N(C)C2CN(c3ccc4nnc(C)n4n3)C2)ccc1F
Yes
Cl.NCCCC(N)(C(=O)O)C(F)F.O (stereo unspecified)
Yes
CC(=O)Nc1c(-c2ccc3ccccc3c2)nc2ccccn12
Yes
COCC(=O)Nc1c(C(=O)Nc2ccc(OC(F)(F)F)cc2)oc2ccccc12
Yes
CCOc1ccc(C(CN)N2CCOCC2)cc1 (stereo unspecified)
Yes

Entry "COc1cc2c(cc1OC)C(=S)NC1(CCCC1)C2" : is its NF-kB reporter no less than 1?
No

Entry "Cc1cccc(-c2cc3nc(C)c(Cl)c(O)n3n2)c1" : is its NF-kB reporter no less than 1?
Yes

Entry "COc1ccc(C=NNc2nc(-c3ccccc3)cc(-c3ccc(Br)cc3)n2)c(OC)c1" : is its NF-kB reporter no less than 1?
No

Entry "COC1CCN(C2CCN(S(=O)(=O)c3ccccc3)CC2)CC1" : is its NF-kB reporter no less than 1?
No

---

Measured NF-kB reporter values are reported for all entries that follow.
- Test system: RAW-Dual (murine macrophage reporter line)
- Method: NF-kB reporter (SEAP) activity fold change vs agonist alone; higher = enhanced NF-kB activity
- Conditions used: modulator concentration 10 µM; agonist: CpG ODN 1826 0.5 ug/mL

Previously resolved entries follow.
Oc1ccc2ccccc2c1SSc1c(O)ccc2ccccc12
0.639
O=c1ccc2ccc(OCCCCN3CCN(c4cccc5sccc45)CC3)cc2[nH]1
0.31
CS(=O)(=O)N(CC(=O)NCC1CCCO1)c1ccc(Cl)c(C(F)(F)F)c1 (stereo unspecified)
0.751
CCOc1ccc(NC(=O)CC2Nc3cccc4cccc(c34)NC2=O)cc1 (stereo unspecified)
0.91
CCOc1cc(CC(=O)N[C@@H](CC(C)C)c2ccccc2N2CCCCC2)ccc1C(=O)O
1.24

Give NF-kB reporter for the following compound: "Fc1ccccc1C=NNc1nc(-c2ccccc2)cc(-c2ccccc2)n1"
1.03

Give NF-kB reporter for the following compound: COc1ccc(CCN(C)CCCC(C#N)(c2ccc(OC)c(OC)c2)C(C)C)cc1OC.Cl (stereo unspecified)
0.742

Give NF-kB reporter for the following compound: Oc1cc(O)c2c(c1)OC(c1ccc(O)c(O)c1)C(O)C2 (stereo unspecified)
0.936

Give NF-kB reporter for the following compound: "O=S(=O)(NN=Cc1c[nH]c2ccccc12)c1ccc(Cl)cc1"
0.627

Give NF-kB reporter for the following compound: "CC(C)(C)C(=O)NCc1cccnc1-c1cccnc1"
0.968

Give NF-kB reporter for the following compound: "NC(=O)c1cn(Cc2c(F)cccc2F)nn1"
1.01
